Catalogue of EC50 values
# EXPERIMENTAL_SYSTEM: KORD (D138N hKOR) (Homo sapiens, UniProt P41145, D138N)
# Sequence (P41145 whole entry D138N): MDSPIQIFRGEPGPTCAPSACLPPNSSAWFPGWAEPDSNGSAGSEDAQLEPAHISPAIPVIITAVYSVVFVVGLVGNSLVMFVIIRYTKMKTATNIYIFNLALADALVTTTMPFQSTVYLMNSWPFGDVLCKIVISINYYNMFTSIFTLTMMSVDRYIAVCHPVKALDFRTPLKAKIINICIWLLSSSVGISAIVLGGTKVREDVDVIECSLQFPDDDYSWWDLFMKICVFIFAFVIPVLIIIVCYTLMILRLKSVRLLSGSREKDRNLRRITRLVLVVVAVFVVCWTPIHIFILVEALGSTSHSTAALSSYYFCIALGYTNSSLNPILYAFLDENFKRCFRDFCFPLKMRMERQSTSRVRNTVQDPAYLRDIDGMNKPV
# PROTOCOL: cell-based
# APPLIED_CONDITIONS: EC50(nM)
Peptide text beside a SMILES is read from it.

[[record]]
compound = "CSCC[C@H](NC(=O)[C@H](Cc1ccccc1)NC(=O)CNC(=O)CNC(=O)[C@@H](N)Cc1ccc(O)cc1)C(=O)N[C@@H](CCCNC(=N)N)C(=O)N[C@@H](CCCNC(=N)N)C(=O)N[C@H](C(=O)NCC(=O)N[C@@H](CCCNC(=N)N)C(=O)N1CCC[C@H]1C(=O)N[C@@H](CCC(=O)O)C(=O)O)C(C)C [BAM 12] (H-YGGFMRRVGRPE-OH)"
experimental_value = "> 10000 nM"

[[record]]
compound = "CC(C)C[C@H](NC(=O)[C@H](Cc1ccccc1)NC(=O)CNC(=O)CNC(=O)[C@@H](N)Cc1ccc(O)cc1)C(=O)N[C@@H](CCCNC(=N)N)C(=O)N[C@@H](CCCCN)C(=O)N[C@@H](Cc1ccc(O)cc1)C(=O)N1CCC[C@H]1C(=O)N[C@@H](CCCCN)C(=O)O [α-Neoendrophin] (H-YGGFLRKYPK-OH)"
experimental_value = "> 10000 nM"

[[record]]
compound = "CSCC[C@H](NC(=O)[C@H](Cc1ccccc1)NC(=O)CNC(=O)CNC(=O)[C@@H](N)Cc1ccc(O)cc1)C(=O)N[C@@H](CCCNC(=N)N)C(=O)N[C@@H](CCCNC(=N)N)C(=O)N[C@H](C(N)=O)C(C)C [Metorphamide]"
experimental_value = "> 10000 nM"

[[record]]
compound = "CC[C@H](C)[C@H](NC(=O)[C@H](CCCNC(=N)N)NC(=O)[C@H](CCCNC(=N)N)NC(=O)[C@H](CC(C)C)NC(=O)[C@H](Cc1ccccc1)NC(=O)CNC(=O)CNC(=O)[C@@H](N)Cc1ccc(O)cc1)C(=O)N[C@@H](CCCNC(=N)N)C(=O)N1CCC[C@H]1C(=O)N[C@@H](CCCCN)C(=O)N[C@@H](CC(C)C)C(=O)N[C@@H](CCCCN)C(=O)O [Dynorphin A(1-13)]"
experimental_value = "> 10000 nM"

[[record]]
compound = "CC[C@H](C)[C@H](NC(=O)[C@H](CCCN=C(N)N)NC(=O)[C@H](CCCN=C(N)N)NC(=O)[C@H](CC(C)C)NC(=O)[C@H](Cc1ccccc1)NC(=O)CNC(=O)CNC(=O)[C@@H](N)Cc1ccc(O)cc1)C(=O)N[C@@H](CCCN=C(N)N)C(=O)O [Dynorphin A(1-9)] (H-YGGFLRRIR-OH)"
experimental_value = "> 10000 nM"


Lookup: Name the reported EC50 value associated with the compound CSCC[C@H](NC(=O)[C@H](Cc1ccccc1)NC(=O)CNC(=O)CNC(=O)[C@@H](N)Cc1ccc(O)cc1)C(=O)N[C@@H](CCCNC(=N)N)C(=O)N[C@@H](CCCNC(=N)N)C(=O)N[C@H](C(=O)NCC(=O)N[C@@H](CCCNC(=N)N)C(=O)N1CCC[C@H]1C(=O)N[C@@H](CCC(=O)O)C(=O)N[C@@H](Cc1c[nH]c2ccccc12)C(=O)N[C@@H](Cc1c[nH]c2ccccc12)C(=O)N[C@@H](CCSC)C(=O)N[C@@H](CC(=O)O)C(=O)N[C@@H](Cc1ccc(O)cc1)C(=O)N[C@@H](CCC(N)=O)C(=O)O)C(C)C [BAM 18] (H-YGGFMRRVGRPEWWMDYQ-OH)
Found: > 10000 nM

---

# EXPERIMENTAL_SYSTEM: KOR (Homo sapiens, UniProt P41145)
# Sequence (P41145 whole entry): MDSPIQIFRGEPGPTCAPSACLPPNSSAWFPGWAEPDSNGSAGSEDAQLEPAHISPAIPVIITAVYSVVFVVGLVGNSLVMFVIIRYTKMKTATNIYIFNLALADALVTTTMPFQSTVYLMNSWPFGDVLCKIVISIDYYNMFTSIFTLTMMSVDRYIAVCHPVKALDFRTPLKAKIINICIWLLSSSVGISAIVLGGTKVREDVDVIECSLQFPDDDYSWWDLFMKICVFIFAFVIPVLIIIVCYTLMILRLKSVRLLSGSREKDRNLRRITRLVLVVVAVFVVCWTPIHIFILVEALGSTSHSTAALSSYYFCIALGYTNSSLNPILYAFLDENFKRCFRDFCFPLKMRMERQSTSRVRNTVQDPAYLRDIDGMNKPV
# PROTOCOL: cell-based
# APPLIED_CONDITIONS: EC50(nM)
Peptide text beside a SMILES is read from it.
MEASUREMENT_KIND: EC50 (nM)
The reply should contain only the number, in nM.

[[record]]
molecule = "CSCC[C@H](NC(=O)[C@H](Cc1ccccc1)NC(=O)CNC(=O)CNC(=O)[C@@H](N)Cc1ccc(O)cc1)C(=O)N[C@@H](CCCNC(=N)N)C(=O)N[C@@H](CCCNC(=N)N)C(=O)N[C@H](C(N)=O)C(C)C [Metorphamide]"
measurement_kind = "EC50"
experimental_value = 108

[[record]]
molecule = "CSCC[C@H](NC(=O)[C@H](Cc1ccccc1)NC(=O)CNC(=O)CNC(=O)[C@@H](N)Cc1ccc(O)cc1)C(=O)N[C@@H](CCCNC(=N)N)C(=O)N[C@@H](CCCNC(=N)N)C(=O)N[C@H](C(=O)NCC(=O)N[C@@H](CCCNC(=N)N)C(=O)N1CCC[C@H]1C(=O)N[C@@H](CCC(=O)O)C(=O)N[C@@H](Cc1c[nH]c2ccccc12)C(=O)N[C@@H](Cc1c[nH]c2ccccc12)C(=O)N[C@@H](CCSC)C(=O)N[C@@H](CC(=O)O)C(=O)N[C@@H](Cc1ccc(O)cc1)C(=O)N[C@@H](CCC(N)=O)C(=O)O)C(C)C [BAM 18] (H-YGGFMRRVGRPEWWMDYQ-OH)"
measurement_kind = "EC50"
experimental_value = 85


Lookup: Name the reported EC50 value associated with the molecule CSCC[C@H](NC(=O)[C@H](Cc1ccccc1)NC(=O)CNC(=O)CNC(=O)[C@@H](N)Cc1ccc(O)cc1)C(=O)N[C@@H](CCCNC(=N)N)C(=O)N[C@@H](CCCNC(=N)N)C(=O)N[C@H](C(=O)NCC(=O)N[C@@H](CCCNC(=N)N)C(=O)N1CCC[C@H]1C(=O)N[C@@H](CCC(=O)O)C(=O)O)C(C)C [BAM 12] (H-YGGFMRRVGRPE-OH)
Found: 101

---

Catalogue of pEC50 values
# EXPERIMENTAL_SYSTEM: KOR (Homo sapiens)
# PROTOCOL: cell-based
# APPLIED_CONDITIONS: pEC50 ± SEM
Peptide text beside a SMILES is read from it.
pEC50 is a log-scale quantity: -log10 of the concentration expressed in molar.

// known answers, use as guide
[[record]]
compound = "CC[C@H](C)[C@H](NC(=O)[C@H](CCCN=C(N)N)NC(=O)[C@H](CCCN=C(N)N)NC(=O)[C@H](CC(C)C)NC(=O)[C@H](Cc1ccccc1)NC(=O)CNC(=O)CNC(=O)[C@@H](N)Cc1ccc(O)cc1)C(=O)N[C@@H](CCCN=C(N)N)C(=O)O [Dynorphin A(1-9)] (H-YGGFLRRIR-OH)"
experimental_value = 6.89

[[record]]
compound = "CSCC[C@H](NC(=O)[C@H](Cc1ccccc1)NC(=O)CNC(=O)CNC(=O)[C@@H](N)Cc1ccc(O)cc1)C(=O)N[C@@H](CCCNC(=N)N)C(=O)N[C@@H](CCCNC(=N)N)C(=O)N[C@H](C(=O)NCC(=O)N[C@@H](CCCNC(=N)N)C(=O)N1CCC[C@H]1C(=O)N[C@@H](CCC(=O)O)C(=O)O)C(C)C [BAM 12] (H-YGGFMRRVGRPE-OH)"
experimental_value = 6.99


// below: pEC50 requested for another compound
Lookup: Name the reported pEC50 value associated with the compound CC(C)C[C@H](NC(=O)[C@H](Cc1ccccc1)NC(=O)CNC(=O)CNC(=O)[C@@H](N)Cc1ccc(O)cc1)C(=O)N[C@@H](CCCNC(=N)N)C(=O)N[C@@H](CCCCN)C(=O)N[C@@H](Cc1ccc(O)cc1)C(=O)N1CCC[C@H]1C(=O)N[C@@H](CCCCN)C(=O)O [α-Neoendrophin] (H-YGGFLRKYPK-OH)
Found: 7.19

---

Catalogue of EC50 values
# EXPERIMENTAL_SYSTEM: KOR (Homo sapiens, UniProt P41145)
# PROTOCOL: cell-based
# APPLIED_CONDITIONS: EC50(nM)
Peptide text beside a SMILES is read from it.
The reply should contain only the number, in nM.

// known answers, use as guide
[[record]]
molecule = "CC(C)C[C@H](NC(=O)[C@H](Cc1ccccc1)NC(=O)CNC(=O)CNC(=O)[C@@H](N)Cc1ccc(O)cc1)C(=O)N[C@@H](CCCNC(=N)N)C(=O)N[C@@H](CCCCN)C(=O)N[C@@H](Cc1ccc(O)cc1)C(=O)N1CCC[C@H]1C(=O)N[C@@H](CCCCN)C(=O)O [α-Neoendrophin] (H-YGGFLRKYPK-OH)"
measurement_kind = "EC50"
experimental_value = 64

[[record]]
molecule = "CC[C@H](C)[C@H](NC(=O)[C@H](CCCN=C(N)N)NC(=O)[C@H](CCCN=C(N)N)NC(=O)[C@H](CC(C)C)NC(=O)[C@H](Cc1ccccc1)NC(=O)CNC(=O)CNC(=O)[C@@H](N)Cc1ccc(O)cc1)C(=O)N[C@@H](CCCN=C(N)N)C(=O)O [Dynorphin A(1-9)] (H-YGGFLRRIR-OH)"
measurement_kind = "EC50"
experimental_value = 127


// below: EC50 requested for another molecule
Lookup: Name the reported EC50 value associated with the molecule CC[C@H](C)[C@H](NC(=O)[C@H](CCCNC(=N)N)NC(=O)[C@H](CCCNC(=N)N)NC(=O)[C@H](CC(C)C)NC(=O)[C@H](Cc1ccccc1)NC(=O)CNC(=O)CNC(=O)[C@@H](N)Cc1ccc(O)cc1)C(=O)N[C@@H](CCCNC(=N)N)C(=O)N1CCC[C@H]1C(=O)N[C@@H](CCCCN)C(=O)N[C@@H](CC(C)C)C(=O)N[C@@H](CCCCN)C(=O)O
Found: 19
